Quick list: folding stability dG per entry.
B1: 6YSE (parent)
chain: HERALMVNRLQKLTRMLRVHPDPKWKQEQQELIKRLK

Variants of: B1
EXPERIMENT NOTES: folding stability dG (cDNA display proteolysis); higher = more stable
STUDY CONDITIONS: PBS, room temperature
Express the result in kJ/mol but write the number alone.

Take a look at these entries with their results.
SEQUENCE | UNIT NAME | folding stability dG
HERALMVNRLQKLTRMLRVHPDPKWKQEQQELSKRLK [I33S] | kJ/mol | -0.971
HERALMVNRLQKLTRMLRVHPDPKWKQEQQELWKRLK [I33W] | kJ/mol | 3.89
HERALMVNRLVKLTRMLRVHPDPKWKQEQQELIKRLK [Q11V] | kJ/mol | 6.2

Turning now to a further record.
Output folding stability dG of HERALMVNRLQHLTRMLRVHPDPKWKQEQQELIKRLK [K12H]
5.73

Measured values drawn from the MegaScale stability set (Tsuboyama et al. 2023) for this set.
